- protocol-notes: First order rate data for the hydrolysis of compound in dog plasma hydrolysis medium; Half-life in minutes
- Type: ADME, Canis lupus familiaris
quantity-measured: half-life (min)
Answer in min, number only, no unit symbol.

QUERY: What measured half-life goes with `COc1ccc(-c2oc(=O)oc2COC(=O)NCCc2ccc(OC)c(OC)c2)cc1` ?
RESULT: 14

QUERY: Suppose we examine the compound `COc1ccc(CCNC(=O)OCc2oc(=O)oc2-c2ccccc2)cc1OC` ; what half-life value has been reported?
RESULT: 11

###

- protocol-notes: First order rate data for the hydrolysis of compound in 0.05 M phosphate buffer pH 7.4 hydrolysis medium; Half-life in minutes
- Type: ADME
quantity-measured: half-life (min)
Give the value, in units of min, as a plain number.

                            molecule_smiles  quantity_measured  unit_spec  reported_value
0      COc1ccc(CCNC(=O)OCc2oc(=O)oc2C)cc1OC          half-life        min             258
1  COc1ccc(CCNC(=O)OCc2oc(=O)oc2-c2ccccc2)cc1OC          half-life        min             134

QUERY: Quick one: half-life for `COc1ccc(-c2oc(=O)oc2COC(=O)NCCc2ccc(OC)c(OC)c2)cc1` ?
RESULT: 207

###

half-life reference
- protocol-notes: First order rate data for the hydrolysis of compound in rat plasma hydrolysis medium; Half-life in minutes
- Format: ADME
Remember to follow the number with its unit.

>>> df
                            molecule_smiles  quantity_measured  reported_value
0  COc1ccc(CCNC(=O)OCc2oc(=O)oc2-c2ccccc2)cc1OC          half-life           2 min
1  COc1ccc(-c2oc(=O)oc2COC(=O)NCCc2ccc(OC)c(OC)c2)cc1          half-life           2 min

// next entry
QUERY: I am curious: what half-life value has been reported for `COc1ccc(CCNC(=O)OCc2oc(=O)oc2C)cc1OC` ?
RESULT: 11 min

###

Item-by-item account of half-life
- protocol-notes: First order rate data for the hydrolysis of compound in 0.1 M hydrochloric acid pH 1 hydrolysis medium; Half-life in minutes
- Assay type: ADME
The response must be a number in h with no trailing unit.

QUERY: Value lookup for half-life; key = `COc1ccc(CCNC(=O)OCc2oc(=O)oc2-c2ccccc2)cc1OC`
RESULT: 59.2

QUERY: Using the record for `COc1ccc(-c2oc(=O)oc2COC(=O)NCCc2ccc(OC)c(OC)c2)cc1` , report its half-life.
RESULT: 53

Every entry's value here was drawn from ChEMBL document CHEMBL1129662.
